# EXPERIMENT_DESCRIPTION: Bioavailability in mouse at 10 mg/kg
# Assay type: ADME, organism-based
# STATED_CONDITIONS: in vivo

# COMPOUND, bioavailability
records = [
    ("Cc1c(-c2c(F)cc(C(N)=O)c3[nH]c4c(c23)CC[C@H](C(C)(C)O)C4)cccc1-n1c(=O)c2cccc(F)c2n(C)c1=O (atropisomer R) [BMS-986142]", "< 4%"),
]

====

# EXPERIMENT_DESCRIPTION: Cmax in rat at 5 mg/kg, po
# Assay type: ADME, organism-based
# Parameters: dose 5 mg/kg, route oral
# STATED_CONDITIONS: in vivo
PROPERTY_NAME: Cmax

# MOLECULE, PROPERTY_NAME, OBSERVED_VALUE
records = [
    ("Cc1c(-c2c(F)cc(C(N)=O)c3[nH]c4c(c23)CC[C@H](C(C)(C)O)C4)cccc1-n1c(=O)c2cccc(F)c2n(C)c1=O (atropisomer R)", "Cmax", "2300 nM"),
]
